The reported measurements were obtained from ChEMBL document CHEMBL1139656.

Here's what we have: pKi numbers for 5-hydroxytryptamine receptor 2A (Homo sapiens, UniProt P28223).
In plain terms, pKi is the concentration in mol/L turned into minus its base-10 logarithm.

Reported pKi for CCOC(=O)[C@@H]1CCCN(CCCC(C)(C)S(=O)(=O)c2ccccc2)C1 was 5.73

Reported pKi for CC(C)(CCCN1CC[C@@H]2CCCC[C@H]2C1)S(=O)(=O)c1ccccc1 (racemic) was 5.70

Reported pKi for O=S(=O)(c1ccccc1)C1(CCCN2CCC3CCCCC3C2)CCC1 (racemic) was 6.24

----------
target: D(2) dopamine receptor (Homo sapiens); assay: Displacement of [3H]spiperone from the cloned human D2 receptor expressed in CHO cells
Sequence (P14416 whole entry): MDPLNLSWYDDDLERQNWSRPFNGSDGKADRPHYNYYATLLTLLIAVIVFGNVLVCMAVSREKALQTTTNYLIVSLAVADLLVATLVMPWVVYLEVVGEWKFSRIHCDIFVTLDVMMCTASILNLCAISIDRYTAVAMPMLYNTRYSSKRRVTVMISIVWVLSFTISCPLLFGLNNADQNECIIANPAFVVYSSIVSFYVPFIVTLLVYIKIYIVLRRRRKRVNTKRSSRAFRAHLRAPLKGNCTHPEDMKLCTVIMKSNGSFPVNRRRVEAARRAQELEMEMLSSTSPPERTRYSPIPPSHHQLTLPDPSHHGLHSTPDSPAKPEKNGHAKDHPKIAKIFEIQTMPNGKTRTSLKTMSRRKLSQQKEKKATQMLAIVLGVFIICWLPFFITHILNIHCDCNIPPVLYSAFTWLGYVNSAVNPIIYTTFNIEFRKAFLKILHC
READOUT_KIND: Ki (nM)
Dear colleague, please return just the value in nM, with no unit written.

Reported Ki for CC(C)(CCCN1CCCC(c2ccccc2)C1)S(=O)(=O)c1ccccc1 (racemic) was 220

Reported Ki for CC(C)(CCCN1CCCC(c2cnco2)C1)S(=O)(=O)c1ccccc1 (racemic) was 1500

Reported Ki for CC(C)(CCCN1CC[C@@H]2CCCC[C@H]2C1)S(=O)(=O)c1ccccc1 (racemic) was 900

Reported Ki for CCOC(=O)[C@@H]1CCCN(CCCC(C)(C)S(=O)(=O)c2ccccc2)C1 was 710

----------
molecular target: 5-hydroxytryptamine receptor 7 (Homo sapiens, UniProt P34969); experiment: Activity towards human 5-HT7 receptor at 10 uM relative to 5-CT; assay type: functional
Sequence (P34969 whole entry): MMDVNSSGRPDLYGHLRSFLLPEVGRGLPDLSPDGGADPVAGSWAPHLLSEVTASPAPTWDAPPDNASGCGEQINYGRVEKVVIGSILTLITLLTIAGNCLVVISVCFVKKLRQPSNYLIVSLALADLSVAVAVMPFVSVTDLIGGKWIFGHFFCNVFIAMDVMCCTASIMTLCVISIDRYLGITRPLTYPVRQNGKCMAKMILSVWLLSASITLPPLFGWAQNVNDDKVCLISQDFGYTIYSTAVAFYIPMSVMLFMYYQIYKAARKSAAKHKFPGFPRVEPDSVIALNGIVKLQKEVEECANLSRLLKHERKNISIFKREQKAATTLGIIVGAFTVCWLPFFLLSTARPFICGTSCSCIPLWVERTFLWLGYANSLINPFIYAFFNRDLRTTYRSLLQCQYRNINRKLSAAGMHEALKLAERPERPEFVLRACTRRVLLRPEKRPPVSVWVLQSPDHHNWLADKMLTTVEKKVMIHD
hey, just use 1 (yes) if measured Activity is less than 5%, otherwise 0 (no)

Lab note: Activity threshold 5%. Does this compound come in strictly under it? CC(C)(CCCN1CCCC(C(F)(F)F)C1)S(=O)(=O)c1ccccc1 (racemic)
1 (yes)

Lab note: Activity threshold 5%. Does this compound come in strictly under it? CCOC(=O)[C@@H]1CCCN(CCCC(C)(C)S(=O)(=O)c2ccccc2)C1
1 (yes)

Lab note: Activity threshold 5%. Does this compound come in strictly under it? CC(C)(CCCN1CC[C@@H]2CCCC[C@H]2C1)S(=O)(=O)c1ccccc1 (racemic)
0 (no)

Lab note: Activity threshold 5%. Does this compound come in strictly under it? CC(C)(CCCN1CCCC(c2ccccc2)C1)S(=O)(=O)c1ccccc1 (racemic)
1 (yes)

Lab note: Activity threshold 5%. Does this compound come in strictly under it? O=S(=O)(c1ccccc1)C1(CCCN2CCC3CCCCC3C2)CCC1 (racemic)
0 (no)

Lab note: Activity threshold 5%. Does this compound come in strictly under it? CC(C)(CCCN1CCCC(c2cnco2)C1)S(=O)(=O)c1ccccc1 (racemic)
0 (no)

----------
Field: Ki. Provide a value for each of the compounds that follow.

Entry CC(C)(CCCN1CCCC(c2cnco2)C1)S(=O)(=O)c1ccccc1 (racemic) ; assay system UniProtKB P28222; Ki recorded at > 5 µM

Entry CC(C)(CCCN1CCCC(C(F)(F)F)C1)S(=O)(=O)c1ccccc1 (racemic) ; assay system UniProtKB P28222; Ki recorded at > 7 µM

----------
target: UniProtKB P08908
Sequence (P08908 whole entry): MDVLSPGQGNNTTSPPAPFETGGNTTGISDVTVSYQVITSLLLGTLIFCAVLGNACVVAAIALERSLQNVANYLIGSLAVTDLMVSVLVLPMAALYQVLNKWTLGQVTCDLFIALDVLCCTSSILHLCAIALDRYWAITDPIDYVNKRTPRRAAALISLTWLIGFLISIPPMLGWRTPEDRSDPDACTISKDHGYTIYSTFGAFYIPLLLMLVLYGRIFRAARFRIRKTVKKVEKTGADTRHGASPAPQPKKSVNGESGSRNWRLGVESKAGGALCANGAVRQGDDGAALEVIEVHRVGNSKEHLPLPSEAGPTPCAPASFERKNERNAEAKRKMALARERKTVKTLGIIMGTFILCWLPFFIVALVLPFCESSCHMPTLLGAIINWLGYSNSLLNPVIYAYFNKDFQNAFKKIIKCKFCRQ
READOUT_KIND: pKi
In plain terms, pKi is the concentration in mol/L turned into minus its base-10 logarithm.

Reported pKi for CC(C)(CCCN1CC[C@@H]2CCCC[C@H]2C1)S(=O)(=O)c1ccccc1 (racemic) was 5.82

----------
Field: Ki. Provide a value for each of the compounds that follow.
target: Adrenergic receptor alpha-1 (Rattus norvegicus, UniProt P15823+P23944+P43140); test: Displacement of [3H]prazosin from alpha-1 adrenergic receptor in rat cortex

Reported Ki for CC(C)(CCCN1CCCC(c2cnco2)C1)S(=O)(=O)c1ccccc1 (racemic) was > 4000 nM⁻¹

Reported Ki for CC(C)(CCCN1CCCC(C(F)(F)F)C1)S(=O)(=O)c1ccccc1 (racemic) was > 4000 nM⁻¹

Reported Ki for CC(C)(CCCN1CC[C@@H]2CCCC[C@H]2C1)S(=O)(=O)c1ccccc1 (racemic) was 3900 nM⁻¹

Reported Ki for CC(C)(CCCN1CCCC(c2ccccc2)C1)S(=O)(=O)c1ccccc1 (racemic) was 540 nM⁻¹

Reported Ki for CCOC(=O)[C@@H]1CCCN(CCCC(C)(C)S(=O)(=O)c2ccccc2)C1 was > 4000 nM⁻¹
